Biological target: KCNH6 (Homo sapiens)
Construct: human KCNH6 gene in pcDNA3.1, transiently expressed in HEK293 cells
Sequence (Q9H252 whole entry): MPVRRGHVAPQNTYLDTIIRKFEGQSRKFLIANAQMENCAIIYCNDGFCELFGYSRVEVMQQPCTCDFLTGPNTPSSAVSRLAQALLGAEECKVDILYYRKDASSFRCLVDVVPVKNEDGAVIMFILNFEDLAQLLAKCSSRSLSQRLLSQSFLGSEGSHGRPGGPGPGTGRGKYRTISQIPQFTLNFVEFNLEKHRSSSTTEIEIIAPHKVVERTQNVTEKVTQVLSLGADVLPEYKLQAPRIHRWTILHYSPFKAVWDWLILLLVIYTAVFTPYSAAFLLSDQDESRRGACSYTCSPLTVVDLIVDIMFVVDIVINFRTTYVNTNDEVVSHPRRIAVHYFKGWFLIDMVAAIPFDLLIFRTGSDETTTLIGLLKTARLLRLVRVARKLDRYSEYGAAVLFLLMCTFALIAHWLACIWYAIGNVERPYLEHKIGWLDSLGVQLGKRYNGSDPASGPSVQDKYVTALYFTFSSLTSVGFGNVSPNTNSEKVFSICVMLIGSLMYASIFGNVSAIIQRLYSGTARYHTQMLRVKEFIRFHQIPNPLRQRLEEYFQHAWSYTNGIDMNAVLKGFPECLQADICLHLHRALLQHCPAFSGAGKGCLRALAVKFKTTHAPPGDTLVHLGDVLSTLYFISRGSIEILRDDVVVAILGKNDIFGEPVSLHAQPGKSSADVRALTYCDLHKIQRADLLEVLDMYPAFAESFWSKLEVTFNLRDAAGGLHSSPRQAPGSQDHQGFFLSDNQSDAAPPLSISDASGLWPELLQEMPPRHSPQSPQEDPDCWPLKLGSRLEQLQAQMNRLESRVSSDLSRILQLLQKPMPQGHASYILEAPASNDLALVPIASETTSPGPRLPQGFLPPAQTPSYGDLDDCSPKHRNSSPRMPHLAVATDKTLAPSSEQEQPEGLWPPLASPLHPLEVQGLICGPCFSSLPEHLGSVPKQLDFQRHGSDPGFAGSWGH
Assay: whole-cell patch-clamp, peak tail current in transfected HEK293 cells

COMPOUND: COc1cc(N)c(Cl)cc1C(=O)NC1CCN(CCCOc2ccc(F)cc2)CC1OC (stereo not shown) [cisapride]
IC50 / nM: 6.04
